test system: U2OS; test: Incucyte cell viability with U2OS; type: toxicity, cell-based; conditions: human, 6 h, 10 µM, compound concentration 10 uM, replicate number 1, timepoint 6 hours; further: filed as whole numbers so only -1 and 0 and 1 occur
Outcome measure: Growth Rate

Example compounds with recorded Growth Rate:
- Compound: "CCCCN(CCCC)C(=O)CN1C[C@H](c2cc(OC)c3c(c2)OCO3)[C@@H](C(=O)O)[C@@H]1CC(C)(C)CCC.Cc1ccc(S(=O)(=O)O)cc1"
  Measurement target: "U2OS"
  Growth Rate: 0
- Compound: "Cc1c(NC(=O)c2cc(C(N)=O)nc3cc(F)ccc23)c(C(F)(F)F)nn1Cc1ccc(C#N)cc1 [BAY-876]"
  Measurement target: "U2OS"
  Growth Rate: 1
- Compound: "Cn1cc(CCn2cnc(-c3cnn(C)c3)c2-c2ccc(C#N)cc2)cn1"
  Measurement target: "U2OS"
  Growth Rate: 1
- Compound: "Cc1ccc2nc(CNCCCOc3ccccc3)cc(O)c2c1 [UCSF924]"
  Measurement target: "U2OS"
  Growth Rate: 0
- Compound: "Cl.Oc1ccc2c3c1O[C@H]1c4[nH]c5c(c4C[C@@]4(O)[C@@H](C2)N(CC2CC2)CC[C@]314)C[C@@]1(O)[C@H]2Cc3ccc(O)c4c3[C@@]1(CCN2CC1CC1)[C@H]5O4"
  Measurement target: "U2OS"
  Growth Rate: 0
- Compound: "CC(=O)N1CCC(c2ccc(C(=O)NC(=N)N)cc2C(F)(F)F)CC1 [BI 9627]"
  Measurement target: "U2OS"
  Growth Rate: 1
- Compound: "CC(=O)C1=C(C)N(c2cccc(C(F)(F)F)c2)C(=O)N[C@@H]1c1ccc(C#N)nc1 [BAY-678]"
  Measurement target: "U2OS"
  Growth Rate: 0
- Compound: "COCC(=O)NC/C=C/c1ccc2ncnc(Nc3ccc(Oc4ccc(C)nc4)c(C)c3)c2c1 [CP-724714]"
  Measurement target: "U2OS"
  Growth Rate: 1

Prompt line: Recorded Growth Rate for CNC(=O)c1ccccc1Nc1cc(Nc2ccc(N3CCOCC3)cc2OC)ncc1C(F)(F)F [VS-4718] , please?
Response line: 0

Prompt line: Likewise for O=C(Cc1ccc(-c2ccc(OCCN3CCOCC3)cc2)cn1)NCc1ccccc1 [TIRBANIBULIN] ?
Response line: 1

Prompt line: Likewise for CCCS(=O)(=O)Nc1ccc(F)c(C(=O)c2c[nH]c3ncc(Cl)cc23)c1F [PLX-4720] ?
Response line: 1

Prompt line: Likewise for O=C(NS(=O)(=O)c1ccc(NCC2CCOCC2)c([N+](=O)[O-])c1)c1ccc(N2CCN(Cc3ccc(C(F)(F)F)cc3-c3ccc(Cl)cc3)CC2)cc1Oc1cnc2[nH]ccc2c1 [A-1210227] ?
Response line: 0

Prompt line: Likewise for "O=C(Nc1cccnn1)N1CC(C/C=C/c2cncc(Oc3ccc(C(F)(F)F)cn3)n2)C1" ?
Response line: 0

Prompt line: Likewise for "S=C(NCCCc1c[nH]cn1)NCCCN(Cc1ccc(Cl)c(Cl)c1)c1ccc(Br)cn1" ?
Response line: -1

Prompt line: Likewise for O=C(Nc1ccc(-n2nc(-c3cccnc3)cc2C(F)(F)F)cn1)c1ccc(-c2ccccc2)c(F)c1 [BI 2049] ?
Response line: 0

Prompt line: Likewise for COc1cc(N2CCC(N3CCN(C)CC3)CC2)ccc1Nc1ncnc(Nc2ccccc2S(=O)(=O)C(C)C)n1 [ASP-3026] ?
Response line: 0

Prompt line: Likewise for Cc1cn(-c2cc(NC(=O)c3ccc(C)c(Nc4nccc(-c5cccnc5)n4)c3)cc(C(F)(F)F)c2)cn1 [NILOTINIB] ?
Response line: 0
